experiment: Foam test of DOSS solutions with added foam control agent (based on ASTM D 1173-53)
Assay type: physicochemical
assay-context: 0.1 wt % foam control agent added to 0.1 wt % DOSS in water, after 10 min
Record form. Attribute: Foam height after 10 min. Fill in for each entry.
Answers are plain numbers, in cm.

{"compound": "CCCCOCC(O)CNCCN(CC(O)COCCCC)CC(O)COCCCC (centres unmarked)", "measure-unit": "cm", "Foam height after 10 min": 1.2}
{"compound": "CCCCOCC(O)CN(CCN(CC(O)COCCCC)CC(O)COCCCC)CC(O)COCCCC (centres unmarked)", "measure-unit": "cm", "Foam height after 10 min": 1.2}
{"compound": "CCCCOCC(O)CN(CCCOCCOCCOCCCN(CC(O)COCCCC)CC(O)COCCCC)CC(O)COCCCC (centres unmarked)", "measure-unit": "cm", "Foam height after 10 min": 0.2}
{"compound": "CC(C)COCC(O)CN(CCN(CC(O)COCC(C)C)CC(O)COCC(C)C)CC(O)COCC(C)C (centres unmarked)", "measure-unit": "cm", "Foam height after 10 min": 1.2}
{"compound": "CCCCOCC(O)CNC1CCC(CC2CCC(N)CC2)CC1 (mixture of isomers)", "measure-unit": "cm", "Foam height after 10 min": 0}
{"compound": "CCCCOCC(O)CNCCN (racemic)", "measure-unit": "cm", "Foam height after 10 min": 1.4}

Need Foam height after 10 min for each of these compounds.
1. CCCCOCC(O)CNCCCOCCOCCOCCCN(CC(O)COCCCC)CC(O)COCCCC (centres unmarked)
2. CCCCC(CC)COCC(O)CNCCN(CC(O)COCC(CC)CCCC)CC(O)COCC(CC)CCCC (centres unmarked)

Result:
1. 0.1
2. 1.2
